# measured-on: full-length human PRMT6 (Flag- and His-tagged) (Homo sapiens, UniProt Q96LA8)
# Sequence (Q96LA8 with tags, fused parts or gaps): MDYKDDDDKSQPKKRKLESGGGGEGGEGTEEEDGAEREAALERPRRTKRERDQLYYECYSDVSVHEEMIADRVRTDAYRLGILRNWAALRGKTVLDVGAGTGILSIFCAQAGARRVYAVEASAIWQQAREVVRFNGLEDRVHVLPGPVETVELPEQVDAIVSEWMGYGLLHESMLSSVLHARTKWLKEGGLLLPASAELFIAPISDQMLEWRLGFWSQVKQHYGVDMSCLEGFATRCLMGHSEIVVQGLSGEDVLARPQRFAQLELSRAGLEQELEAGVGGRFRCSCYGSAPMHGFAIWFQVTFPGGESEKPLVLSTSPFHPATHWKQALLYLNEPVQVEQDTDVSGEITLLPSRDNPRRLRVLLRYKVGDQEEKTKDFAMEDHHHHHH
Structures can show the parent of a compound that is named as a salt.
assay-endpoint: pIC50
Numbers only, as −log10 of the molar value.

# molecule, measured-on, pIC50
records = [
    ("CNCCN(C)Cc1n[nH]cc1[C@H]1CC[C@]2(CC1)CC(C)(C)CO2 [compound 116]", "full-length human PRMT6 (Flag- and His-tagged) (Homo sapiens, UniProt Q96LA8)", 6.87),
    ("CNCCN(C)Cc1c[nH]nc1C1CCC(OCCCOC)C2(CCCC2)C1 (mixture of isomers) [compound 19, dihydrochloride]", "full-length human PRMT6 (Flag- and His-tagged) (Homo sapiens, UniProt Q96LA8)", 6.72),
    ("CCOCC1(COCC)CC=C(c2n[nH]cc2CN(C)CCNC)CC1 [compound 60]", "full-length human PRMT6 (Flag- and His-tagged) (Homo sapiens, UniProt Q96LA8)", 7.39),
    ("CNCCN(C)Cc1c[nH]nc1C1CCC(CO)(CO)CC1 [compound 44]", "full-length human PRMT6 (Flag- and His-tagged) (Homo sapiens, UniProt Q96LA8)", 7.67),
    ("CNCCN(C)Cc1nc(C)sc1[C@H]1CC[C@]2(CC1)CC(C)(C)CO2 [compound 99]", "full-length human PRMT6 (Flag- and His-tagged) (Homo sapiens, UniProt Q96LA8)", 6.50),
    ("CNCCN(C)Cc1c[nH]nc1C1CCC(COCC2CC2)(COCC2CC2)CC1 [compound 41]", "full-length human PRMT6 (Flag- and His-tagged) (Homo sapiens, UniProt Q96LA8)", 8.16),
]

State recorded pIC50 for all listed molecules.
1. CCOCCOCC1(COCCOCC)CCC(c2n[nH]cc2CN(C)CCNC)CC1 [compound 39]
2. CNCCN(C)Cc1n[nH]cc1[C@H]1CC[C@@]2(CC1)CC(C)(C)CO2 [compound 115]
3. CCC1CC(c2n[nH]cc2CN(C)CCNC)CC(C(=O)NCCOC)C1(C)C (centres unmarked) [compound 21, dihydrochloride]

Response:
[7.38, 7.38, 6.10]

State recorded pIC50 for all listed molecules.
1. CNCCN(C)Cc1c[nH]nc1C1=CCC(CF)(CF)CC1 [compound 15]
2. CC[C@H]1CC[C@@H](c2n[nH]cc2CN(C)CCNC)CC1 [compound 1]
3. CNCCN(C)Cc1c(Cl)ncn1[C@H]1CC[C@]2(CC1)CC(C)(C)CO2 [compound 97]
4. CN(CCN)Cc1nn(C)cc1[C@H]1CC[C@]2(CC1)CC(C)(C)CO2 [compound 102]
5. CCC1(CC)C[C@]2(CC[C@@H](c3n[nH]cc3CN(C)CCNC)CC2)OC1=O [compound 34]
6. CNCCN(C)Cc1c[nH]nc1C1CCC(COCCC2CCOCC2)(COCCC2CCOCC2)CC1 [compound 40]

Response:
7.78
7.99
5.45
5.94
7.97
7.43

----------
# measured-on: full-length human PRMT8 isoform 1 (Homo sapiens)
# Sequence (Q9NR22 whole entry, canonical isoform): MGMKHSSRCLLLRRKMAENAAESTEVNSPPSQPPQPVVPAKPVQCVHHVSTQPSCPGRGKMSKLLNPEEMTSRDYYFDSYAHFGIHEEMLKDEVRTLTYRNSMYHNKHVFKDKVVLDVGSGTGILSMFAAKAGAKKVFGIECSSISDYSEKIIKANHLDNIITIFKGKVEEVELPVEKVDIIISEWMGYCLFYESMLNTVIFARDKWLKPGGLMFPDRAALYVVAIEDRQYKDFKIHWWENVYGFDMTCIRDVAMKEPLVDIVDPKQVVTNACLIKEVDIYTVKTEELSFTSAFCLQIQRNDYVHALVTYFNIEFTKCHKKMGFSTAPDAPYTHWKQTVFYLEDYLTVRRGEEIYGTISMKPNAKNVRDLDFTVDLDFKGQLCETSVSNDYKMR
# procedure-details: PRMT8 biochemical assay (3H-SAM Flashplate, histone H4 31-45 peptide)
# experimental-setup: 1.5 nM PRMT8, 30 min preincubation, 150 nM peptide
Field: IC50. Provide a value for each of the molecules that follow.

# molecule, measured-on, IC50
measured = [
    ("CNCCN(C)Cc1c[nH]nc1C1CCC(C)(C)[C@H](COCCCOC)C1 (some centres unmarked)", "full-length human PRMT8 isoform 1 (Homo sapiens)", "187 nM"),
    ("CC[C@H]1CC[C@@H](c2n[nH]cc2CN(C)CCNC)CC1", "full-length human PRMT8 isoform 1 (Homo sapiens)", "11.1 nM"),
    ("CCN(C)C(=O)C1CC(c2n[nH]cc2CN(C)CCNC)CC(C(=O)NCCC(C)C)C1(C)C (centres unmarked)", "full-length human PRMT8 isoform 1 (Homo sapiens)", "> 10000 nM"),
]

State recorded IC50 for all listed molecules.
1. CNCCN(C)Cc1nncn1[C@H]1CC[C@@]2(CC1)CC(C)(C)CO2
2. CNCCN(C)Cc1c[nH]nc1C1C[C@H](C(=O)NCCOC)C(C)(C)[C@H](C(=O)NCCOC)C1 (some centres unmarked)
3. CC[C@]12CC[C@](CC)(C[C@H](c3n[nH]cc3CN(C)CCNC)C1)O2
4. CNCCN(C)Cc1c(C)[nH]nc1[C@H]1CC[C@@]2(CC1)CC(C)(C)CO2
5. CN(CCN)Cc1nn(C)cc1[C@H]1CC[C@]2(CC1)CC(C)(C)CO2

Response:
3480 nM
> 10000 nM
45.5 nM
32.7 nM
38.9 nM

Sourced from patent US20170291905A1
